subject-of-test: P-gp (Homo sapiens, UniProt P08183)
Sequence (P08183 whole entry): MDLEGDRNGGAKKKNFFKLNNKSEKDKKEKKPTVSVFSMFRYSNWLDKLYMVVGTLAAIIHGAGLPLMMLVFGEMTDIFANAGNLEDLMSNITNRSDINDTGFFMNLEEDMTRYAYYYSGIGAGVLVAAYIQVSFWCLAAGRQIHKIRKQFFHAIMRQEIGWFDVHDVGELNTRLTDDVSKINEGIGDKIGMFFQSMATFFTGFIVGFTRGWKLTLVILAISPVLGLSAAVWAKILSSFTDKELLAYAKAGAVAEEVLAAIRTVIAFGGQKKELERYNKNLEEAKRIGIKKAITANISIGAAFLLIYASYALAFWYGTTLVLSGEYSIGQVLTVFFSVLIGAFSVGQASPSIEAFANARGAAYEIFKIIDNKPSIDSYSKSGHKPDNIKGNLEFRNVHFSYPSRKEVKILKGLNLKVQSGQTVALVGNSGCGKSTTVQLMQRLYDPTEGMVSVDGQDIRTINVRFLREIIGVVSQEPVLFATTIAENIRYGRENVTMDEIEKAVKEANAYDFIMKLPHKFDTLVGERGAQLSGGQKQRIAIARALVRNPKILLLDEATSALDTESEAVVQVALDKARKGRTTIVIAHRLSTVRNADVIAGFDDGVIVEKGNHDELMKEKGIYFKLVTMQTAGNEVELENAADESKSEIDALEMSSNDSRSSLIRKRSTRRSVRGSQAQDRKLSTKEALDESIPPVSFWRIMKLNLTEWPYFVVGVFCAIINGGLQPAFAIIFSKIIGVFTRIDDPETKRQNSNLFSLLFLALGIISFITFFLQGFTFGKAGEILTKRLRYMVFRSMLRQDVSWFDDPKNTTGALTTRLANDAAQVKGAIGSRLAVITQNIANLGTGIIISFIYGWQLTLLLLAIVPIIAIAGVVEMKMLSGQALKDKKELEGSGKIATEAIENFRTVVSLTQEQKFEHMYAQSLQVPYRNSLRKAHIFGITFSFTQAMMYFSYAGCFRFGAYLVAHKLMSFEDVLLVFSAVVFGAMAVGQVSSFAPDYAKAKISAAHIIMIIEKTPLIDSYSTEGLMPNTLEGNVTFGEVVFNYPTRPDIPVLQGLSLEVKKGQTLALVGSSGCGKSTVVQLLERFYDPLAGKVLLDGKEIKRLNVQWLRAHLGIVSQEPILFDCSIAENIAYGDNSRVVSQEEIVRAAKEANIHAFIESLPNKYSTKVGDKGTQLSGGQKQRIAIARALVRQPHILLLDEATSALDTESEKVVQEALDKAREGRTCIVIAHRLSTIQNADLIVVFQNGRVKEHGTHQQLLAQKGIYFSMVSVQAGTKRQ
experiment: Transporter substrate evaluation, MDCKII-P-gp cells
Type: in vitro ADME
Parameters: expressed in transfected cells; host or cells: MDCKII (Madin-Darby canine kidney) cells
conditions: MDCK-MDR1, MDCKII-P-gp assay
measured-property: recovery

query-smiles	endpoint-value
O=C(O)C[C@H]1CCc2c1[nH]c1ccc(OCc3ccc(C4CCCC4)c(C(F)(F)F)c3)cc21	18 to 60%

###

subject-of-test: OAT1 (Homo sapiens, UniProt Q4U2R8)
Sequence (Q4U2R8 1-563): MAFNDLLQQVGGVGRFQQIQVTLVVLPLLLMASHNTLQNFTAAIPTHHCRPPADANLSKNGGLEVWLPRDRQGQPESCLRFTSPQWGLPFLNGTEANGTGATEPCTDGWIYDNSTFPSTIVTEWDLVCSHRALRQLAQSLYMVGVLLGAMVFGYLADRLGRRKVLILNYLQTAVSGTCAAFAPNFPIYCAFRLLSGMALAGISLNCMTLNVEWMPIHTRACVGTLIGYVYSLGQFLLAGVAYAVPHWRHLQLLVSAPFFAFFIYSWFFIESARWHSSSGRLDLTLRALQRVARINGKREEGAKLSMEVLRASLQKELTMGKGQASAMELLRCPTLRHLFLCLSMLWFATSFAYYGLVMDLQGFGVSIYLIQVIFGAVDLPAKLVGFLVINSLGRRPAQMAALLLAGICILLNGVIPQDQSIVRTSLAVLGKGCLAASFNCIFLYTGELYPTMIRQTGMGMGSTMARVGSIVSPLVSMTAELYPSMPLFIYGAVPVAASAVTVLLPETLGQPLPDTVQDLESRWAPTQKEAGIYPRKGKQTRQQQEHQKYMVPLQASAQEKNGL
pIC50: −log10 of the molar value.

query-smiles	pIC50
O=C(O)C[C@H]1CCc2c1[nH]c1ccc(OCc3ccc(C4CCCC4)c(C(F)(F)F)c3)cc21	< 5.00

Reference for the values: patent US20210228545A1
